Notes on IC50 obtained with EGFR (UniProt P00533).
Sequence (P00533 whole entry, looked up): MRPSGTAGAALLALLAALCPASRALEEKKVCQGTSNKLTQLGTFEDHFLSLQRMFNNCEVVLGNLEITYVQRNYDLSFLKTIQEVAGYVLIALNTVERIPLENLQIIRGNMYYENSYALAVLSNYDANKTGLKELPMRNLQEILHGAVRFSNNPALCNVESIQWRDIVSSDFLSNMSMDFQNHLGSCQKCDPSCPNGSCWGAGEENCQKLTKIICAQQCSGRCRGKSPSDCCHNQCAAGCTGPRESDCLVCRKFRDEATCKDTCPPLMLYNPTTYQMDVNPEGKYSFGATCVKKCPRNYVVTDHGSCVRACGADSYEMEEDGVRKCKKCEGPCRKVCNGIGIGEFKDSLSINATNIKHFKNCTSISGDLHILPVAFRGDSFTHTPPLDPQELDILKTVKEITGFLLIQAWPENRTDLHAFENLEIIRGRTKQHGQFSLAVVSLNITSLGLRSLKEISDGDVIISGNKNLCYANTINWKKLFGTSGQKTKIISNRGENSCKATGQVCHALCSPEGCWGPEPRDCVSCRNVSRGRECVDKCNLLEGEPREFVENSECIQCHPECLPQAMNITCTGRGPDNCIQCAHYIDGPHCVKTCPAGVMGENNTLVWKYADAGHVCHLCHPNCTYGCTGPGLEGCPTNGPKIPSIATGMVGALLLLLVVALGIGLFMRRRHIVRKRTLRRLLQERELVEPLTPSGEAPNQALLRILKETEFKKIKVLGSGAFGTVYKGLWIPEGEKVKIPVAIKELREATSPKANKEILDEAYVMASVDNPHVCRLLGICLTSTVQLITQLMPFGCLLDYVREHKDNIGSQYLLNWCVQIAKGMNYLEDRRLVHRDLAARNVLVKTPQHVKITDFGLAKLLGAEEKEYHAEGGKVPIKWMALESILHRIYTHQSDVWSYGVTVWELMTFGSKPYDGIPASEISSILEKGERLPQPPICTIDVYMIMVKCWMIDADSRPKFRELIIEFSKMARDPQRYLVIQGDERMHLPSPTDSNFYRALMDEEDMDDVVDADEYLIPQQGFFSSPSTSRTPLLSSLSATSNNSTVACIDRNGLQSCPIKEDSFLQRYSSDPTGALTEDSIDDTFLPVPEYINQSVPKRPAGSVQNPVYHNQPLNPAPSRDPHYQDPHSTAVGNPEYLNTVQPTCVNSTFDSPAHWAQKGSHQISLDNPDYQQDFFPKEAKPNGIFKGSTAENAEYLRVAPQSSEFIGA
measure: IC50

1. Nc1nc2ccccc2n1-c1ncnc(Nc2cccnc2)n1 : 2.4 to 3.5 µg/mL
2. O=c1[nH]c2ccccc2n1-c1ncnc(Nc2ccccn2)n1 : > 4.5 µg/mL
3. COc1cc(Nc2ncnc(N3CCN(c4ccccn4)CC3)n2)cc(OC)c1OC : > 4.5 µg/mL
4. COc1ccc(Nc2ncnc(-n3c(N)nc4ccccc43)n2)cc1 : 2.4 to 3.5 µg/mL
5. COc1cc(C)c(Nc2ncnc(-c3cccs3)n2)cc1OC : > 4.5 µg/mL
6. Clc1ccc(-c2csc(Nc3ncnc(-n4cccc4)n3)n2)cc1 : > 4.5 µg/mL
7. COc1cc(Nc2ncnc(NCc3ccccc3)n2)cc(OC)c1OC : < 0.4 µg/mL
8. COc1cc(Nc2ncnc(Nc3ccc(N(C)C)cc3)n2)cc(OC)c1OC : 2.4 to 3.5 µg/mL
9. NS(=O)(=O)c1ccc(Nc2ncnc(-n3c(=O)[nH]c4ccccc43)n2)cc1 : > 4.5 µg/mL
10. COc1cc(Nc2ncnc(Nc3cccc(Cl)c3)n2)cc(OC)c1 : < 0.4 µg/mL
11. COc1cc(Nc2ncnc(N3CCCc4cc(C)ccc43)n2)cc(OC)c1OC : < 0.4 µg/mL
12. COc1cc(Nc2ncnc(-n3c(NCc4ccc(C)cc4)nc4ccccc43)n2)cc(OC)c1OC : > 4.5 µg/mL
13. COc1ccc(Nc2ncnc(-c3ccccc3)n2)cc1 : > 4.5 µg/mL
14. COc1cc(Nc2ncnc(Nc3nc(C)cs3)n2)cc(OC)c1OC : 0.4 to 2.4 µg/mL
15. Cc1ccc2c(c1)CCCN2c1ncnc(Nc2cccc(Cc3nnn[nH]3)c2)n1 : < 0.4 µg/mL
16. COc1cc(Nc2ncnc(Nc3cccc(CC(=O)O)c3)n2)cc(OC)c1OC : < 0.4 µg/mL
17. COc1ccc(Nc2ncnc(Nc3ccc(Br)cc3F)n2)cc1OC : 2.4 to 3.5 µg/mL
18. COc1cc(Nc2ncnc(-c3c(O)[nH]c4ccc(Cl)cc34)n2)cc(OC)c1OC : 2.4 to 3.5 µg/mL
19. C=CCNc1nc2ccccc2n1-c1ncnc(Nc2cc(OC)c(OC)c(OC)c2)n1 : > 4.5 µg/mL
20. c1coc(-c2cc(Nc3ncnc(Nc4ccc(N5CCOCC5)cc4)n3)[nH]n2)c1 : 2.4 to 3.5 µg/mL
21. COc1cc(Nc2ncnc(N3CCN(c4ncccn4)CC3)n2)cc(OC)c1OC : > 4.5 µg/mL
22. O=c1[nH]c2ccccc2n1-c1ncnc(Nc2ccc3ccccc3c2)n1 : > 4.5 µg/mL
23. CN(c1cccc(Cl)c1)c1ncnc(NCCN2CCCCC2)n1 : 2.4 to 3.5 µg/mL
